Please go through the items and note down their RLU.
- Experimental System: mouse Tas2r105 (Mus musculus)
- Construct: expressed in transfected cells; host or cells: HEK293T-Gα16gust44
- Sequence (Q9JKT4 1-300): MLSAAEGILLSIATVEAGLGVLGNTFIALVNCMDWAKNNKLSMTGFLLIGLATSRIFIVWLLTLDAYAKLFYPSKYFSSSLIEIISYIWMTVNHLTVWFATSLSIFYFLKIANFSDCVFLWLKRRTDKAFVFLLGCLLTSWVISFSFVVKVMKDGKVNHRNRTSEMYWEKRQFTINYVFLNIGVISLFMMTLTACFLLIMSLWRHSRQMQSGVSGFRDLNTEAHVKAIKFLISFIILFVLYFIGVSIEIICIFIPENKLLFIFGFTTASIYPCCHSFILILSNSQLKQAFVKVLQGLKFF
- Test Name: Calcium imaging assay (FLIPR), HEK293T-Gα16gust44 cells transfected with mouse Tas2r105
- Type: cell-based
- Test Settings: Time 94.781 s
Unit RLU implied. Number only.

Need RLU, item "C[C@H](CCC(=O)O)[C@H]1CC[C@H]2[C@@H]3CC[C@@H]4C[C@H](O)CC[C@]4(C)[C@H]3C[C@H](O)[C@]12C"
105.551

Need RLU, item "C[C@H](CCC(=O)NCC(=O)O)[C@H]1CC[C@H]2[C@@H]3[C@H](O)C[C@@H]4C[C@H](O)CC[C@]4(C)[C@H]3C[C@H](O)[C@]12C"
524.334

Need RLU, item "C[C@H](CCC(=O)O)[C@H]1CC[C@H]2[C@@H]3[C@H](O)C[C@@H]4C[C@H](O)CC[C@]4(C)[C@H]3C[C@H](O)[C@]12C"
575.485

Need RLU, item "C[C@H](CCC(=O)O)[C@H]1CC[C@H]2[C@@H]3CC[C@@H]4C[C@H](O)CC[C@]4(C)[C@H]3CC[C@]12C"
228.864

---

- Experimental System: human TAS2R1 (Homo sapiens)
- Construct: expressed in transfected cells; host or cells: HEK293T-Gα16gust44
- Sequence (Q9NYW7 whole entry): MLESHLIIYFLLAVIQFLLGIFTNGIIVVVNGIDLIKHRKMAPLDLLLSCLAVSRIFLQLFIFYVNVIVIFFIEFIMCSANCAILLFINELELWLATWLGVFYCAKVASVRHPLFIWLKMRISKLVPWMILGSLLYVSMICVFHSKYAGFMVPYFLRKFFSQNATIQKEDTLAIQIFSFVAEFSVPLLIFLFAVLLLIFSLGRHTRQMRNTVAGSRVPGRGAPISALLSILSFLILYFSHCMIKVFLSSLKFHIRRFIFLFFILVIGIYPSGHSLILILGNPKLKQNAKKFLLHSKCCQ
- Test Name: Calcium imaging assay (FLIPR), HEK293T-Gα16gust44 cells transfected with human TAS2R1
- Assay type: cell-based
- Test Settings: Time 130.781 s
- Method: This set of bile acids was chosen because of their commercial availability in high purities, their diversity within the class of bile acids and their previous detection and quantitation in human blood. Stock solutions were prepared in DMSO. […] Measured data were negative control corrected by subtracting the signal of the mock-transfected cells and exported to Microsoft Excel using the FLIPR software ScreenWorks 4.2. […]
Experimental Readout: RLU (RLU)
Unit RLU implied. Number only.

Need RLU, item "C[C@H](CCC(=O)NCCS(=O)(=O)O)[C@H]1CC[C@H]2[C@@H]3CC[C@@H]4C[C@H](O)CC[C@]4(C)[C@H]3CC[C@]12C"
439.84

Need RLU, item "C[C@H](CCC(=O)O)[C@H]1CC[C@H]2[C@@H]3CC[C@@H]4C[C@H](O)CC[C@]4(C)[C@H]3C[C@H](O)[C@]12C"
362.729

Need RLU, item "C[C@H](CCC(=O)NCC(=O)O)[C@H]1CC[C@H]2[C@@H]3[C@H](O)C[C@@H]4C[C@H](O)CC[C@]4(C)[C@H]3C[C@H](O)[C@]12C"
403.872

Need RLU, item "C[C@H](CCC(=O)NCCS(=O)(=O)O)[C@H]1CC[C@H]2[C@@H]3[C@H](O)C[C@@H]4C[C@H](O)CC[C@]4(C)[C@H]3C[C@H](O)[C@]12C"
247.5

---

Please go through the items and note down their RLU.
- Experimental System: mouse Tas2r105 (Mus musculus)
- Construct: expressed in transfected cells; host or cells: HEK293T-Gα16gust44
- Test Name: Calcium imaging assay (FLIPR), HEK293T-Gα16gust44 cells transfected with mouse Tas2r105
- Format: cell-based
- Test Settings: Time 20.781 s
Unit RLU implied. Number only.

Need RLU, item C[C@H](CCC(=O)O)[C@H]1CC[C@H]2[C@@H]3CC[C@@H]4C[C@H](O)CC[C@]4(C)[C@H]3C[C@H](O)[C@]12C [Deoxycholic Acid, deoxycholic acid]
-17.0266

Need RLU, item C[C@H](CCC(=O)O)[C@H]1CC[C@H]2[C@@H]3CC[C@@H]4C[C@H](O)CC[C@]4(C)[C@H]3CC[C@]12C [Lithocholic Acid, lithocholic acid]
-20.4639

Need RLU, item C[C@H](CCC(=O)NCC(=O)O)[C@H]1CC[C@H]2[C@@H]3[C@H](O)C[C@@H]4C[C@H](O)CC[C@]4(C)[C@H]3C[C@H](O)[C@]12C [Glycocholic Acid, glycocholic acid]
-20.1413

Need RLU, item C[C@H](CCC(=O)O)[C@H]1CC[C@H]2[C@@H]3[C@H](O)C[C@@H]4C[C@H](O)CC[C@]4(C)[C@H]3C[C@H](O)[C@]12C [Cholic Acid, cholic acid]
9.429

---

- Experimental System: human TAS2R14 (Homo sapiens, UniProt Q9NYV8)
- Construct: expressed in transfected cells; host or cells: HEK293T-Gα16gust44
- Sequence (Q9NYV8 whole entry): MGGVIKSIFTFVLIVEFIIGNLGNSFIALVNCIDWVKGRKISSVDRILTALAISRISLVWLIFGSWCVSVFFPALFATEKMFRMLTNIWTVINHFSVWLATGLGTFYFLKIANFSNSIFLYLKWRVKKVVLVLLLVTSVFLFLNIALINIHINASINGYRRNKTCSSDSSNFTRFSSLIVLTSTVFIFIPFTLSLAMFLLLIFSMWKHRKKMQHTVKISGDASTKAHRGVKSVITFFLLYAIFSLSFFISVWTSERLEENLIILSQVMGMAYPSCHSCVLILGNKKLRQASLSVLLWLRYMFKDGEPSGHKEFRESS
- Test Name: Calcium imaging assay (FLIPR), HEK293T-Gα16gust44 cells transfected with human TAS2R14
- Format: cell-based
- Test Settings: TAS2R14 trace; Time (s) 299.578 (Taurocholic Acid 299.563, Chenodeoxycholic Acid 299.546)
Please go through the items and note down their log10(RLU).
// units: RLU (pre-log); metric: RLU; scale: log10

Need log10(RLU), item "C[C@H](CCC(=O)O)[C@H]1CC[C@H]2[C@@H]3[C@H](O)C[C@@H]4C[C@H](O)CC[C@]4(C)[C@H]3CC[C@]12C"
2.34

Need log10(RLU), item "C[C@H](CCC(=O)NCCS(=O)(=O)O)[C@H]1CC[C@H]2[C@@H]3[C@H](O)C[C@@H]4C[C@H](O)CC[C@]4(C)[C@H]3C[C@H](O)[C@]12C"
2.04

Need log10(RLU), item "C[C@H](CCC(=O)O)[C@H]1CC[C@H]2[C@@H]3[C@H](O)C[C@@H]4C[C@H](O)CC[C@]4(C)[C@H]3C[C@H](O)[C@]12C"
2.31

Need log10(RLU), item "C[C@H](CCC(=O)NCC(=O)O)[C@H]1CC[C@H]2[C@@H]3[C@H](O)C[C@@H]4C[C@H](O)CC[C@]4(C)[C@H]3C[C@H](O)[C@]12C"
2.35

Need log10(RLU), item "C[C@H](CCC(=O)NCCS(=O)(=O)O)[C@H]1CC[C@H]2[C@@H]3CC[C@@H]4C[C@H](O)CC[C@]4(C)[C@H]3CC[C@]12C"
0.46

---

- Experimental System: human TAS2R1 (Homo sapiens)
- Construct: expressed in transfected cells; host or cells: HEK293T-Gα16gust44
- Test Name: Calcium imaging assay (FLIPR), HEK293T-Gα16gust44 cells transfected with human TAS2R1
- Assay type: cell-based
- Test Settings: Time 179.562 s
- Procedure: This set of bile acids was chosen because of their commercial availability in high purities, their diversity within the class of bile acids and their previous detection and quantitation in human blood. Stock solutions were prepared in DMSO. […] Measured data were negative control corrected by subtracting the signal of the mock-transfected cells and exported to Microsoft Excel using the FLIPR software ScreenWorks 4.2. […]
Experimental Readout: RLU (RLU)
Unit RLU implied. Number only.

Need RLU, item "C[C@H](CCC(=O)O)[C@H]1CC[C@H]2[C@@H]3[C@H](O)C[C@@H]4C[C@H](O)CC[C@]4(C)[C@H]3CC[C@]12C"
392.276

Need RLU, item "C[C@H](CCC(=O)O)[C@H]1CC[C@H]2[C@@H]3[C@H](O)C[C@@H]4C[C@H](O)CC[C@]4(C)[C@H]3C[C@H](O)[C@]12C"
176.247

Need RLU, item "C[C@H](CCC(=O)O)[C@H]1CC[C@H]2[C@@H]3CC[C@@H]4C[C@H](O)CC[C@]4(C)[C@H]3CC[C@]12C"
570.66

Need RLU, item "C[C@H](CCC(=O)O)[C@H]1CC[C@H]2[C@@H]3[C@@H](O)C[C@@H]4C[C@H](O)CC[C@]4(C)[C@H]3CC[C@]12C"
97.5703

---

Please go through the items and note down their RLU.
- Experimental System: mouse Tas2r108 (Mus musculus)
- Construct: expressed in transfected cells; host or cells: HEK293T-Gα16gust44
- Sequence (Q9JKT3 whole entry): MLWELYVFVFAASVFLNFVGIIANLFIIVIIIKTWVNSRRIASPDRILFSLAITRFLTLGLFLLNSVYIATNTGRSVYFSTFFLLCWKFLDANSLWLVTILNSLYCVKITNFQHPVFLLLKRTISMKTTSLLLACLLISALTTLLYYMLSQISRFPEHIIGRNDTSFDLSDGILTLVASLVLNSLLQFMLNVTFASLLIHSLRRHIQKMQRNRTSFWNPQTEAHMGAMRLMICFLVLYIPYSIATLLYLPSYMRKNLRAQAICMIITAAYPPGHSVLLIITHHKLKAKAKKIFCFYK
- Test Name: Calcium imaging assay (FLIPR), HEK293T-Gα16gust44 cells transfected with mouse Tas2r108
- Assay type: cell-based
- Test Settings: Time 341.562 s
Unit RLU implied. Number only.

Need RLU, item "C[C@H](CCC(=O)O)[C@H]1CC[C@H]2[C@@H]3[C@H](O)C[C@@H]4C[C@H](O)CC[C@]4(C)[C@H]3C[C@H](O)[C@]12C"
184.414

Need RLU, item "C[C@H](CCC(=O)O)[C@H]1CC[C@H]2[C@@H]3CC[C@@H]4C[C@H](O)CC[C@]4(C)[C@H]3C[C@H](O)[C@]12C"
422.32

Need RLU, item "C[C@H](CCC(=O)NCC(=O)O)[C@H]1CC[C@H]2[C@@H]3[C@H](O)C[C@@H]4C[C@H](O)CC[C@]4(C)[C@H]3C[C@H](O)[C@]12C"
183.065

Need RLU, item "C[C@H](CCC(=O)NCCS(=O)(=O)O)[C@H]1CC[C@H]2[C@@H]3[C@H](O)C[C@@H]4C[C@H](O)CC[C@]4(C)[C@H]3C[C@H](O)[C@]12C"
273.956
